Measured values drawn from the supplement of paper PMC12764529 for this set.

# Experiment Summary: folding stability dG unfold (combined trypsin and chymotrypsin); higher = more stable
Classification field: T = folding stability dG unfold at or over 3 kcal/mol; F = folding stability dG unfold under 3 kcal/mol.

>>> df
                             record_sequence  label_value
 0  SMTIRVEGVPPGVTAEELAARLRAELEAAGYEVTSIKVTRRADGSLVVEIEVKPAPPPEPVEVVEEREEESA [r9_953_TrROS_Hall]            T
 1  SAGGSAGGSAGPRYRLRIELRLERNEDGSLSLSAKIEIERIEPPPPPPRVVLYNGKLYLLSAGGSAGGSAGG [r17_418_TrROS_Hall]            T
 2  SAGGSAGGSADDEIVAEFTFTVPGTGVKKVKVKVFKDPNSDEYWVRVEGKWLPVSNPEEALESAGGSAGGSA [r18_67_TrMRF]            F
 3  SAGGSAGGSAGSKKKRVITIWIPPNQSIEEAKNFMDEGFPIKEIDVQTRPDGHMMVTITLSAGGSAGGSAGG [r11_97_TrROS]            F
 4  SAGGSAGGSKKKIKVIIEVEVNGKKYKIEVEAETEEEAKKKAEEAIKELKKKFPNVKIKKIKPSAGGSAGGS [r12_230_TrROS_Hall]            T
 5  SIEITFRHDNYRVPVKIDPDDPKIKIEVYPDPENGEMQPLTEEDMENFAQEIADELREQRKQQRKEGKPPSA [r9_368_TrROS]            F
 6  SAGGSAGGSAGGSTILILDPETKKLYLIRIEKREDGKEELKLKVYEFDLKTGEMKEYELSAGGSAGGSAGGS [r10_1041_TrROS_Hall]            T
 7  SAGGSLVEKVKAIFAEKGIPVNPITTTPTSFTAKTPTGPFTVELPGNSTVTVSPDGTATVTVPPGLSSAGGS [r8_297_JUSTAS]            F
 8  SAGGSAGGSAGGSPPTAKELVKELREKFPPGYPITIKHPDKTIRIMMNPGPGKFQVEIYSAGGSAGGSAGGS [r4_150_TrROS]            F
 9  SMDPGDPILITIKIPPVPVYRYKRDPDGNPKGYEPVPMPSQELVIIIPANDLEKLLDLLQPFGLDVEIIPSA [r9_167_TrROS]            F
10  SAGGSAGGSELEKALASAKPGEEVTVTVESTTPDGTPSVEIVEVKVEAETPSPGKENLEKNRLVSAGGSAGG [r6_893_JUSTAS]            F
11  SAEKEYKVKVKVKIEIVELSEEELENLPPGALVIEVDGKLYLMRIEVEEVEVEEVPEEPEVDEETGELLSAG [r14_126_TrROS_Hall]            T

----------
Reported folding stability dG unfold values are given for each entry in this list.
# Experiment Summary: folding stability dG unfold (combined trypsin and chymotrypsin); higher = more stable
Outcome Measure: folding stability dG unfold

                            record_sequence  recorded_measurement
0  KTIEIMIPMEQMRNNKPIPADQFLKELAQEFGGPNVKPKVEPMPDNMMKATITLPNGRKIEITDPGAIKIKS [r1_168_TrROS]         < -1 kcal/mol
1  SAGGSAGGPPMEPIPFRVRVDEVEHDPPNGNVVITIKDGDKNPHTINIPPEMAKNMPIEPGDELSAGGSAGG [r6_915_TrROS]         < -1 kcal/mol
2  SSAEEVARARFEAAGWDWRPLARDPVKRTVRFEVRPPDRPPRLYEVVVDPSRDTVNLEEDPATGRVVVPGSA [r9_1119_JUSTAS]         < -1 kcal/mol
